target: Hexose transporter 1 (Plasmodium falciparum) (UniProt O97467); test: ST_JUDE_LEISH: Cytotoxicity at 2uM final concentration against transgenic Leishmania Mexicana promastigotes LmPfHT that are glucose transport deficient and complemented with the Plasmodium falciparum hexose transporter. Activity is measured by DNA content using SYBR green in vitro; type: functional
measured metric: inhibition (%)
Only the number, expressed in %, is required.

Consider the following illustrative entries.
[[record]]
compound = "Cc1nc(N)nc(N)c1CCCOc1ccccc1Br"
display_unit = "%"
numeric_readout = 8.36

[[record]]
compound = "CCN(CC)CCNC(=O)c1ccc(N/C=C2\\C(=O)Nc3ccc(S(=O)(=O)Cc4c(Cl)cccc4Cl)cc32)cc1"
display_unit = "%"
numeric_readout = -0.63

[[record]]
compound = "CN1CCCc2ccc(NC(=O)C=Cc3ccc(-c4ccc(F)cc4F)o3)cc2C1"
display_unit = "%"
numeric_readout = 0.81

[[record]]
compound = "COc1ccc2c(=NN=Cc3ccc(F)cc3)cc(C)[nH]c2c1"
display_unit = "%"
numeric_readout = 11

[[record]]
compound = "c1cc(COc2ccc(C3=NCCN3)cc2)nc(COc2ccc(C3=NCCN3)cc2)c1"
display_unit = "%"
numeric_readout = 5.66


Name the recorded inhibition of O=C1C2C3SC(c4c3ccc3ccccc43)C2C(=O)N1c1ccccc1 (stereo not given) , assay system Hexose transporter 1 (Plasmodium falciparum) (UniProt O97467).
0.31

Name the recorded inhibition of CC(C)Nc1nc(NCCc2c[nH]cn2)nc(NCc2cccc3ccccc23)n1 , assay system Hexose transporter 1 (Plasmodium falciparum) (UniProt O97467).
-0.07

Name the recorded inhibition of FC(F)(F)c1cccc(CNCC2CCN(CC3CCCCC3)CC2)c1 , assay system Hexose transporter 1 (Plasmodium falciparum) (UniProt O97467).
-0.13

Name the recorded inhibition of COC(=O)c1ccc(C(=O)NCCCCN2CCC(c3ccc4c(c3OC)CCCC4)CC2)cc1-c1ccc(C(F)(F)F)cc1 , assay system Hexose transporter 1 (Plasmodium falciparum) (UniProt O97467).
1.47

Name the recorded inhibition of CN(C)Cc1ccc(CN2CCN(CCOc3ccc(-c4ccc(Cl)cc4)cc3)CC2)o1 , assay system Hexose transporter 1 (Plasmodium falciparum) (UniProt O97467).
13.8
